- assay: AlamarBlue viability assay in ATDC5/FOP-ACVR1
- experimentalSetup: mouse

compound	viability at 3 days, 10 µM (%)
FC(F)(F)c1ccc(/C=C/c2nc(COc3ccc(CCCCn4ccnn4)cc3)co2)cc1 [TAK 165, mubritinib]	117

* * *

- Tested on: ATDC5/FOP-ACVR1 cells
- assay: ALP assay (HTS and dose-response) in ATDC5/FOP-ACVR1
- Assay type: cell-based, mouse
- experimentalSetup: Mus musculus, same protocol as HTS (72 h)

recordSmiles	IC50 [nM]
C=C1/C(=C\C=C2/CCC[C@]3(C)[C@@H]([C@H](C)CCCC(C)C)CC[C@@H]23)C[C@@H](O)C[C@@H]1O	526
C=C1/C(=C\C=C2/CCC[C@]3(C)[C@@H]([C@H](C)/C=C/[C@@H](O)C4CC4)CC[C@@H]23)C[C@@H](O)C[C@@H]1O	0.3
Cn1c(=O)n(-c2ccc(C(C)(C)C#N)cc2)c2c3cc(-c4cnc5ccccc5c4)ccc3ncc21	87
FC(F)(F)c1ccc(/C=C/c2nc(COc3ccc(CCCCn4ccnn4)cc3)co2)cc1	39
CC(C)(C)Cn1c(N)nc2ccc(-c3[nH]c(C(C)(C)C)nc3-c3ccc(F)cc3)nc21	11
COc1ccc(-c2ccc3c(N4CCOC[C@@H]4C)nc(N4CCOC[C@@H]4C)nc3n2)cc1CO	77
Cc1ccc(-n2nc(C(C)(C)C)cc2NC(=O)Nc2ccc(OCCN3CCOCC3)c3ccccc23)cc1	9

* * *

// reported Viability (%) @10 μM per item
- System: ATDC5/FOP-ACVR1 cells
- assay: AlamarBlue viability assay in ATDC5/FOP-ACVR1
- experimentalSetup: AlamarBlue, ATDC5/FOP-ACVR1, 10 μM
measure: Viability (%) @10 μM

molecule	recordedValue
CC(C)(C)n1nc(-c2cccc3ccccc23)c2c(N)ncnc21	83
Nc1ncnc2c1c(-c1cccc(OCc3ccccc3)c1)cn2C1CC(CN2CCCC2)C1 (centres unmarked)	-1
CCN(CC)CCCCNc1ncc2cc(-c3c(Cl)cccc3Cl)c(NC(=O)NC(C)(C)C)nc2n1	63
CCc1c2c(nc3ccc(O)cc13)-c1cc3c(c(=O)n1C2)COC(=O)[C@]3(O)CC	17
CC(C)Oc1ccc(-c2cnc3c(-c4ccnc5ccccc45)cnn3c2)cc1	92
